- Species: Rattus norvegicus
- Procedure summary: Open TG-GATES - Regimen: Single
- Format: toxicity, organism-based, Sprague-Dawley
- Design: regimen Single, gender Male, age 6 weeks
- Protocol conditions: in vivo, po, 0 mg/kg, 3 h, tissue Blood, route gavage, dose level Control
Measured endpoint: Ret (%)
Only the number, expressed in %, is required.

Compound	Ret (%)
Brc1ccccc1 [BROMOBENZENE]	9.8
COC(=O)C1=C(C)NC(C)=C(C(=O)OC)C1c1ccccc1[N+](=O)[O-] [NIFEDIPINE]	8.7
NC1=NC(=O)C(c2ccccc2)O1 (stereo not given) [PEMOLINE]	9.5
CN(C)CCC(c1ccc(Cl)cc1)c1ccccn1 (stereo not given) [CHLORPHENIRAMINE]	9.4

## Task Find the measured Ret of CN1C(=O)CCS(=O)(=O)C1c1ccc(Cl)cc1 (stereo not given) [CHLORMEZANONE] and report it.
## Result 7.8

## Task Find the measured Ret of Cc1nnc2n1-c1ccc(Cl)cc1C(c1ccccc1Cl)=NC2 [TRIAZOLAM] and report it.
## Result 9.3

## Task Find the measured Ret of CCOc1ccc(NC(C)=O)cc1 [PHENACETIN] and report it.
## Result 8.1

## Task Find the measured Ret of CN/C(=N/CCSCc1nc[nH]c1C)NC#N [CIMETIDINE] and report it.
## Result 7.9

## Task Find the measured Ret of CNC(=C[N+](=O)[O-])NCCSCc1ccc(CN(C)C)o1 [RANITIDINE] and report it.
## Result 6.8

## Task Find the measured Ret of CC(C)NNC(=O)c1ccncc1 [IPRONIAZID] and report it.
## Result 7.2

----------
- Organism: Rattus norvegicus
- Procedure summary: Open TG-GATES - Regimen: Daily Repeat
- Type: toxicity, organism-based, Sprague-Dawley
- Parameters: regimen Daily Repeat, gender Male, age 6 weeks
- Protocol conditions: in vivo, po, 300 mg/kg, […], tissue Plasma, route gavage, dose level Middle, time 7 day
Collected IP values appear next to each entry.
Only the number, expressed in mg/dL, is required.

Guide cases for IP, answers given:
Smiles	Numeric readout
Cc1nnc2n1-c1ccc(Cl)cc1C(c1ccccc1Cl)=NC2	7.5
COC(=O)C1=C(C)NC(C)=C(C(=O)OC)C1c1ccccc1[N+](=O)[O-]	7

## Task Find the measured IP of `CN/C(=N/CCSCc1nc[nH]c1C)NC#N` and report it.
## Result 7.6

## Task Find the measured IP of `CCOc1ccc(NC(C)=O)cc1` and report it.
## Result 6.9

## Task Find the measured IP of `O=C(OC[C@H]1O[C@@H](OC(=O)c2cc(O)c(O)c(OC(=O)c3cc(O)c(O)c(O)c3)c2)[C@H](OC(=O)c2cc(O)c(O)c(OC(=O)c3cc(O)c(O)c(O)c3)c2)[C@@H](OC(=O)c2cc(O)c(O)c(OC(=O)c3cc(O)c(O)c(O)c3)c2)[C@@H]1OC(=O)c1cc(O)c(O)c(OC(=O)c2cc(O)c(O)c(O)c2)c1)c1cc(O)c(O)c(OC(=O)c2cc(O)c(O)c(O)c2)c1` and report it.
## Result 7.9

## Task Find the measured IP of `CNC(=C[N+](=O)[O-])NCCSCc1ccc(CN(C)C)o1` and report it.
## Result 7.5

----------
- Species on record: Rattus norvegicus
- Procedure summary: Open TG-GATES - Regimen: Daily Repeat
- Type: toxicity, organism-based, Sprague-Dawley
- Parameters: regimen Daily Repeat, gender Male, age 6 weeks
- Protocol conditions: in vivo, po, 300 mg/kg, […], tissue Plasma, route gavage, dose level Middle, time 14 day
Collected LDH values appear next to each entry.
Only the number, expressed in IU/L, is required.

Smiles	LDH [IU/L]
CN/C(=N/CCSCc1nc[nH]c1C)NC#N	176.4
CCOc1ccc(NC(C)=O)cc1	159.2
COC(=O)C1=C(C)NC(C)=C(C(=O)OC)C1c1ccccc1[N+](=O)[O-]	48
Cc1nnc2n1-c1ccc(Cl)cc1C(c1ccccc1Cl)=NC2	87.4
O=C(OC[C@H]1O[C@@H](OC(=O)c2cc(O)c(O)c(OC(=O)c3cc(O)c(O)c(O)c3)c2)[C@H](OC(=O)c2cc(O)c(O)c(OC(=O)c3cc(O)c(O)c(O)c3)c2)[C@@H](OC(=O)c2cc(O)c(O)c(OC(=O)c3cc(O)c(O)c(O)c3)c2)[C@@H]1OC(=O)c1cc(O)c(O)c(OC(=O)c2cc(O)c(O)c(O)c2)c1)c1cc(O)c(O)c(OC(=O)c2cc(O)c(O)c(O)c2)c1	83.4

Now for a further compound.
## Task Find the measured LDH of `CNC(=C[N+](=O)[O-])NCCSCc1ccc(CN(C)C)o1` and report it.
## Result 228.8

----------
- Organism: Rattus norvegicus
- Procedure summary: Open TG-GATES - Regimen: Daily Repeat
- Assay type: toxicity, organism-based, Sprague-Dawley
- Design: regimen Daily Repeat, gender Male, age 6 weeks
- Protocol conditions: in vivo, po, 1000 mg/kg, […], tissue Plasma, route gavage, dose level High, time 14 day
Collected A/G values appear next to each entry.
Reply with just the number.

## Task Find the measured A/G of CNC(=C[N+](=O)[O-])NCCSCc1ccc(CN(C)C)o1 [RANITIDINE] and report it.
## Result 1.4

## Task Find the measured A/G of Cc1nnc2n1-c1ccc(Cl)cc1C(c1ccccc1Cl)=NC2 [TRIAZOLAM] and report it.
## Result 0.9

## Task Find the measured A/G of O=C(OC[C@H]1O[C@@H](OC(=O)c2cc(O)c(O)c(OC(=O)c3cc(O)c(O)c(O)c3)c2)[C@H](OC(=O)c2cc(O)c(O)c(OC(=O)c3cc(O)c(O)c(O)c3)c2)[C@@H](OC(=O)c2cc(O)c(O)c(OC(=O)c3cc(O)c(O)c(O)c3)c2)[C@@H]1OC(=O)c1cc(O)c(O)c(OC(=O)c2cc(O)c(O)c(O)c2)c1)c1cc(O)c(O)c(OC(=O)c2cc(O)c(O)c(O)c2)c1 [TANNIC ACID] and report it.
## Result 1.9

## Task Find the measured A/G of CN/C(=N/CCSCc1nc[nH]c1C)NC#N [CIMETIDINE] and report it.
## Result 1.4

----------
Collected A/G values appear next to each entry.
- Organism: Rattus norvegicus
- Procedure summary: Open TG-GATES - Regimen: Single
- Type: toxicity, organism-based, Sprague-Dawley
- Parameters: regimen Single, gender Male, age 6 weeks
- Protocol conditions: in vivo, po, 300 mg/kg, 3 h, tissue Plasma, route gavage, dose level Middle

Guide cases for A/G, answers given:
Smiles	A/G
CN/C(=N/CCSCc1nc[nH]c1C)NC#N	1.6
CNC(=C[N+](=O)[O-])NCCSCc1ccc(CN(C)C)o1	1.7
O=C(OC[C@H]1O[C@@H](OC(=O)c2cc(O)c(O)c(OC(=O)c3cc(O)c(O)c(O)c3)c2)[C@H](OC(=O)c2cc(O)c(O)c(OC(=O)c3cc(O)c(O)c(O)c3)c2)[C@@H](OC(=O)c2cc(O)c(O)c(OC(=O)c3cc(O)c(O)c(O)c3)c2)[C@@H]1OC(=O)c1cc(O)c(O)c(OC(=O)c2cc(O)c(O)c(O)c2)c1)c1cc(O)c(O)c(OC(=O)c2cc(O)c(O)c(O)c2)c1	2.2

Now for a further compound.
## Task Find the measured A/G of `Cc1nnc2n1-c1ccc(Cl)cc1C(c1ccccc1Cl)=NC2` and report it.
## Result 0.9

----------
- Organism: Rattus norvegicus
- Procedure summary: Open TG-GATES - Regimen: Single
- Assay type: toxicity, organism-based, Sprague-Dawley
- Parameters: regimen Single, gender Male, age 6 weeks
- Protocol conditions: in vivo, po, 0 mg/kg, 24 h, tissue Blood, route gavage, dose level Control
Measured endpoint: Plat (x10_4/uL)
Only the number, expressed in x10_4/uL, is required.

Guide cases for Plat, answers given:
Compound	Measured endpoint	Numeric readout
CCOc1ccc(NC(C)=O)cc1	Plat	120.9
Brc1ccccc1	Plat	114.7
NC1=NC(=O)C(c2ccccc2)O1 (stereo unspecified)	Plat	114.9
Cc1nnc2n1-c1ccc(Cl)cc1C(c1ccccc1Cl)=NC2	Plat	116.7
CCCc1cc(=O)[nH]c(=S)[nH]1	Plat	104.6

Now for a further compound.
## Task Find the measured Plat of CN1C(=O)CCS(=O)(=O)C1c1ccc(Cl)cc1 (stereo unspecified) and report it.
## Result 115.7

----------
- Organism: Rattus norvegicus
- Procedure summary: Open TG-GATES - Regimen: Single
- Type: toxicity, organism-based, Sprague-Dawley
- Design: regimen Single, gender Male, age 6 weeks
- Protocol conditions: in vivo, po, 1000 mg/kg, 9 h, tissue Blood, route gavage, dose level High
Measured endpoint: Plat
Don't forget the unit after the number, please.

Guide cases for Plat, answers given:
Smiles	Result
Cc1nnc2n1-c1ccc(Cl)cc1C(c1ccccc1Cl)=NC2	116.9 x10_4/uL
COC(=O)C1=C(C)NC(C)=C(C(=O)OC)C1c1ccccc1[N+](=O)[O-]	123.6 x10_4/uL
O=C(OC[C@H]1O[C@@H](OC(=O)c2cc(O)c(O)c(OC(=O)c3cc(O)c(O)c(O)c3)c2)[C@H](OC(=O)c2cc(O)c(O)c(OC(=O)c3cc(O)c(O)c(O)c3)c2)[C@@H](OC(=O)c2cc(O)c(O)c(OC(=O)c3cc(O)c(O)c(O)c3)c2)[C@@H]1OC(=O)c1cc(O)c(O)c(OC(=O)c2cc(O)c(O)c(O)c2)c1)c1cc(O)c(O)c(OC(=O)c2cc(O)c(O)c(O)c2)c1	119.4 x10_4/uL
CNC(=C[N+](=O)[O-])NCCSCc1ccc(CN(C)C)o1	111.9 x10_4/uL

## Task Find the measured Plat of `CN/C(=N/CCSCc1nc[nH]c1C)NC#N` and report it.
## Result 120.4 x10_4/uL
